Test system: FLT3-ITD+N676T-expressing 32D cell
Assay: inhibitory effect on proliferation of mutant FLT3-expressing 32D cell (intracellular ATP level)
Type: cell-based
Details: 32D, 72 h; Mutation type FLT3-ITD + N676T; day 3, ATP level; read-out: Effect determination (IC50 value class), proliferation
The reader will find reported IC50 values listed item by item below.
value-type: IC50

compound="CCc1nc(C(N)=O)c(Nc2ccc(N3CCC(N4CCN(C)CC4)CC3)c(OC)c2)nc1NC1CCOCC1 [Gilteritinib, reference compound]" value_type=IC50 observed_measurement="5 to 10 nM"
compound=CCCNc1nc(Nc2ccc(C#N)cc2)ncc1C#CCCCNC(=O)[C@H](C)N(C)C(=O)/C=C/CN(C)C value_type=IC50 observed_measurement="0.5 to 1 nM"
